- TEST_PROTOCOL: NCI Yeast Anticancer Drug Screen. Data for the bub3 strain (AID 167)
- MEASUREMENT_CONDITIONS: S. cerevisiae bub3 mutant strain, at 50.0 µM (retest, dose inferred, filed as 5.0)
About 79,000 compounds went through this panel and 15% of them were active in at least one assay; those are over-represented in the sample as a whole. Calls of active or inactive are those of the source. Cut-off read from the data, not from the text of the source: active = growth inhibition above about 70%; inactive = the rest.
The reply should name one outcome from true = active, false = inactive

Study these solved cases before continuing.
COMPOUND: Cc1c(C)n(-c2ccccc2)c2nc(S(C)(=O)=O)nc(S(C)(=O)=O)c12
CATEGORY: true
--
COMPOUND: Nc1ccc2c(SCCSc3c4ccccc4nc4cc(N)ccc34)c3ccccc3nc2c1
CATEGORY: false

Q. Tell me the recorded outcome of this test for Cc1ccc(C)c(NC(=O)CCC(=O)C(C#N)c2cccc3ccccc23)c1 (centres undefined) .
A. false

Q. Another compound: `Cc1ccccc1N1CCN(c2c3c(nc4ccccc24)CCCCC3)CC1`
A. true

Q. Another compound: `OC1(C2CCCCC2)c2ccccc2Cc2ccccc21`
A. true

Q. Another compound: `CC(C)(c1ccccc1)c1ccc2[nH]c(C(C)(C)c3ccccc3)c(CC(=O)O)c2c1`
A. true

Q. Another compound: `Cc1ccsc1/C=N/Nc1ccc2ccccc2n1`
A. true

Q. Another compound: `CCC(=O)OCN1C(=O)C=CC1=O`
A. true

Q. Another compound: Nc1ccc(C2CCC[C@H]2c2ccc(N)cc2)cc1 (some centres undefined)
A. true
